Data provenance: patent US8518958B2

Reported IC50 by item:
target: B-Raf delta1-415 (Homo sapiens, UniProt P15056); experiment: B-Raf kinase inhibition (MAPH filter plate, 33P-ATP, MEK1 substrate); conditions: read-out: Biochemical IC50 B-Raf
Sequence (P15056 416-766): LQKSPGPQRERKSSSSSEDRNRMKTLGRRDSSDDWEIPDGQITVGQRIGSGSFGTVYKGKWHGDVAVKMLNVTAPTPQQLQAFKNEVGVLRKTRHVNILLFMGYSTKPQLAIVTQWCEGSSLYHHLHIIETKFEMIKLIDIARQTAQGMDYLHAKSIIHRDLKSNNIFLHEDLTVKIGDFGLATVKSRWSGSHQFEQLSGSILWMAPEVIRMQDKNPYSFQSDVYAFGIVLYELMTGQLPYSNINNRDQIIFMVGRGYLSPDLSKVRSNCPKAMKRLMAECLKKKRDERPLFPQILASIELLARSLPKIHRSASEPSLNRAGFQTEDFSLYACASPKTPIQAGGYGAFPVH
readout type: IC50

> print(dat)
                                   compound                             target.entity  readout.type  endpoint.result
1  NCCOCCOn1c(=O)c(-c2c(Cl)cccc2Cl)cc2cnc(Nc3ccccc3)nc21 [Compound 58]  B-Raf delta1-415 (Homo sapiens, UniProt P15056)          IC50         < 500 nM
2  O=c1c(-c2c(F)cccc2Cl)cc2cnc(Nc3ccc(N4CCOCC4)cc3)nc2n1OC[C@@H](O)CO [Compound 148]  B-Raf delta1-415 (Homo sapiens, UniProt P15056)          IC50         < 100 nM
3  O=c1c(-c2c(Cl)cccc2Cl)cc2cnc(Nc3ccccc3)nc2n1OCc1cccnc1 [Compound 165]  B-Raf delta1-415 (Homo sapiens, UniProt P15056)          IC50         < 500 nM
4  COCCN(C)C(=O)c1cc(Nc2ncc3cc(-c4c(Cl)cccc4Cl)c(=O)n(OCC4CCOCC4)c3n2)cn1C [Compound 177]  B-Raf delta1-415 (Homo sapiens, UniProt P15056)          IC50         < 500 nM
5  COn1c(=O)c(-c2c(Cl)cccc2Cl)cc2cnc(Nc3ccc(CN4CC[C@@H](O)C4)cc3)nc21 [Compound 179]  B-Raf delta1-415 (Homo sapiens, UniProt P15056)          IC50         < 100 nM
6  O=c1c(-c2ccccc2Cl)cc2cnc(Nc3ccccc3)nc2n1O [Compound 240]  B-Raf delta1-415 (Homo sapiens, UniProt P15056)          IC50        > 1000 nM
7  CO/N=C/c1ccc(Nc2ncc3cc(-c4c(Cl)cccc4Cl)c(=O)n(OC)c3n2)cc1 [Compound 209]  B-Raf delta1-415 (Homo sapiens, UniProt P15056)          IC50        < 1000 nM
8  COn1c(=O)c(-c2c(Cl)cccc2Cl)cc2cnc(Nc3ccccc3)nc21 [Compound 174]  B-Raf delta1-415 (Homo sapiens, UniProt P15056)          IC50        < 1000 nM

----------
Molecular target: B-Raf delta1-415 (Homo sapiens)
Test: B-Raf kinase inhibition (MAPH filter plate, 33P-ATP, MEK1 substrate)
Conditions: read-out: Biochemical IC50 B-Raf
From the text: We characterized the in vitro inhibitory activity against protein kinases of compounds of the present invention by determining their IC50 values (see Table 2). Kinase: B-Raf delta1-415 (e.g., Upstate Cat. No. 14-530) Reaction Temperature: room temperature Assay Plate: 96 well U bottom plate (Greiner, 650161) MultiScreen-PH Plate: 96 well MAPH Filter Plates (Millipore, MAPHNOB50) […] Kinase: Kinase conc. yielding 50% substrate turnover as determined in titration experiment. […]
pIC50: −log10 of the molar value.
Reported pIC50 by item:
readout type: pIC50

> print(dat)
                                         mol                    target.entity  endpoint.result
 1  COn1c(=O)c(-c2c(Cl)cccc2Cl)cc2cnc(Nc3cccc(S(=O)(=O)N4CCOCC4)c3)nc21  B-Raf delta1-415 (Homo sapiens)           > 6.30
 2  COn1c(=O)c(-c2c(Cl)cccc2Cl)cc2cnc(Nc3cc(C(=O)NC[C@@H](O)CO)n(C)c3)nc21  B-Raf delta1-415 (Homo sapiens)           > 7.00
 3  COn1c(=O)c(-c2c(Cl)cccc2Cl)cc2cnc(Nc3cccc(SC)c3)nc21  B-Raf delta1-415 (Homo sapiens)           > 7.00
 4  COn1c(=O)c(-c2c(Cl)cccc2Cl)cc2cnc(Nc3cc(C(=O)N(C)CCOC(=O)c4cccnc4)n(C)c3)nc21  B-Raf delta1-415 (Homo sapiens)           > 6.30
 5  COn1c(=O)c(-c2c(Cl)cccc2Cl)cc2cnc(NCc3ccncc3)nc21  B-Raf delta1-415 (Homo sapiens)           > 6.30
 6  COn1c(=O)c(-c2c(Cl)cccc2Cl)cc2cnc(Nc3ccc(/C=N/O)cc3)nc21  B-Raf delta1-415 (Homo sapiens)           > 6.30
 7  COn1c(=O)c(-c2c(Cl)cccc2Cl)cc2cnc(NC3CC3)nc21  B-Raf delta1-415 (Homo sapiens)           > 6.30
 8  COn1c(=O)c(-c2c(Cl)cccc2Cl)cc2cnc(Nc3ccc(N4CCCN(C)CC4)cc3)nc21  B-Raf delta1-415 (Homo sapiens)           > 7.00
 9  COn1c(=O)c(-c2c(F)cccc2Cl)cc2cnc(Nc3ccc(N4CCNCC4)c(Cl)c3)nc21  B-Raf delta1-415 (Homo sapiens)           > 7.00
10  COn1c(=O)c(-c2c(F)cccc2Cl)cc2cnc(Nc3cccc(S(N)(=O)=O)c3)nc21  B-Raf delta1-415 (Homo sapiens)           > 7.00
11  O=c1c(-c2c(F)cccc2Cl)cc2cnc(Nc3ccc(N4CCOCC4)cc3)nc2n1OCC1CCOCC1  B-Raf delta1-415 (Homo sapiens)           > 7.00
12  COn1c(=O)c(-c2c(Cl)cccc2Cl)cc2cnc(Nc3ccc(OCCN4CCCC4)cc3)nc21  B-Raf delta1-415 (Homo sapiens)           > 6.30
13  COn1c(=O)c(-c2c(Cl)cccc2Cl)cc2cnc(Nc3cc(C(=O)NC[C@H](O)CO)n(C)c3)nc21  B-Raf delta1-415 (Homo sapiens)           > 7.00
14  COn1c(=O)c(-c2c(Cl)cccc2Cl)cc2cnc(Nc3nncs3)nc21  B-Raf delta1-415 (Homo sapiens)           > 6.30
15  COn1c(=O)c(-c2c(Cl)cccc2Cl)cc2cnc(Nc3ccncc3)nc21  B-Raf delta1-415 (Homo sapiens)           > 7.00
16  COn1c(=O)c(-c2c(Cl)cccc2Cl)cc2cnc(Nc3ccc(SCCCO)cc3)nc21  B-Raf delta1-415 (Homo sapiens)           > 6.30

----------
biological target: B-Raf delta1-415 (Homo sapiens, UniProt P15056); test: B-Raf kinase inhibition (MAPH filter plate, 33P-ATP, MEK1 substrate); conditions: read-out: Biochemical IC50 B-Raf
pIC50: −log10 of the molar value.
readout type: pIC50

> print(dat)
                                   molecule  readout.type  endpoint.result
1  COn1c(=O)c(-c2cccc(NC(C)=O)c2)cc2cnc(Nc3ccccc3)nc21         pIC50           > 5.00
2  O=c1c(-c2c(F)cccc2Cl)cc2cnc(Nc3ccc(N4CCOCC4)cc3)nc2n1OCC1CC1         pIC50           > 7.00
3  COn1c(=O)c(-c2c(Cl)cccc2Cl)cc2cnc(Nc3cccc(S(C)(=N)=O)c3)nc21 (stereo not shown)         pIC50           > 7.00
4  COCCOn1c(=O)c(-c2cc(NC(=O)c3cccc(C(F)(F)F)c3)ccc2Cl)cc2cnc(Nc3ccc(N4CCN(C)CC4)cc3)nc21         pIC50           > 7.00
